The measurements presented in this section are drawn from patent US7638540B2.

This section presents compounds with their documented melting point values.

Here's what some known entries look like.
CC(=O)c1cc2c(/C(C)=C/C(=O)N3CCOCC3)ccc(OC(c3ccccc3)c3ccccc3)c2o1    167 to 169.3 °C
C/C=C/C(=O)Nc1c(C(C)=O)oc2ccc(Br)cc12    127.8 to 130 °C

Exercise: Looking for the measured melting point of C/C=C/C(=O)NC(C)c1cc2cccc(OC)c2o1 (centres unmarked) , can you help?
Key: 128.7 to 130.2 °C

Exercise: Also, Cc1oncc1C(=O)Nc1c(C(=O)/C=C/c2ccccc2)oc2ccc(Br)cc12 please.
Key: 219.6 to 220.3 °C

Exercise: Quick one: CC(=O)c1oc2ccc(Br)cc2c1NC(=O)CC#N
Key: 214.4 to 215.1 °C
